Source of measurements: patent US20210347873A1

Target: T1, human BLyS (full length, arginine to histidine at position 132) on CHO-K1 cells (human, UniProt Q9Y275 1-285)
T1 construct: also called hBLyS; CHO-K1 hBLyS
T1 sequence (Q9Y275 whole entry R130H): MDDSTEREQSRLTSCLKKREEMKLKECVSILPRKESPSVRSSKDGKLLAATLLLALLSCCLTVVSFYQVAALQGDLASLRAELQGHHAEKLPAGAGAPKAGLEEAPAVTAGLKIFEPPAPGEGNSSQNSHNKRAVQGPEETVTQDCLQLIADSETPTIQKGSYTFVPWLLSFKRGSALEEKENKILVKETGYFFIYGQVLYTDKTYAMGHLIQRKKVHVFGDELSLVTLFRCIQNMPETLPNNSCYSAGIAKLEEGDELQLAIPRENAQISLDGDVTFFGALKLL
Test: flow cytometry, CHO-K1 hBLyS cells, antibody 66.7 nM
Can you tell me MFI for the items I'm about to list?
Give the value in MFI but do not write MFI after it.

Check the records and state MFI for 111D10D6G3 (antibody, V domains shown, Mouse hybridoma monoclonal antibody purified on Protein G) VH: QVQLQQPGAELVKPGASVKMSCKASGYTFTRHWITWVKQRPGQGLEWIGDIFPGSGSINYNEKFKSEATLTVEKSSSTAYMQLSSLTSEDSAVYYCARGDVDVWGTGTTVTVSS VL: DIQMTQSPSSLSASLGERVSLTCRASQEIRGYLSWLQQKPNGTIKRLIYAASTLDSGVPKRFSATRSGSDFSLTISSLESEDFADYYCLQYASYPFTFGSGTKLEIK 296

Check the records and state MFI for 97E7B3F2 (antibody, V domains shown, Mouse hybridoma monoclonal antibody purified on Protein G) VH: EVQLQQSGPELVKSGASVKISCKASGYTFTDHKMHWVKQSHGKSLEWIGYISPYNGGTGYNQKFKSKVTLTVDISSSTAYMELRSLTSEDSAVYYCARWGFYDVMDSWGQGTSVTVSS VL: DVLLTQTPLSLPVSLGDQASISCRSSQTIVHIIGDTYLEWYLQKPGQSPKLLIYKVSNRFSGVPDRFSGSGAGTDFTLKISRVEAEDLGVYYCFQGSHVPRTFGGGTKLEIK 406

Check the records and state MFI for 2-1G11 (antibody, V domains shown, From a human naive scFv phage library; also called human BLyS antibody 2-1G11) VH: EVQLVESRGGVVQPGRSLRLSCAASGFTFSSYGMHWVRQAPGKGLEWVAVISYDGSNKYYADSVKGRFTISRDNSKNTLYLQMNSLRAEDAAVYYCARDRVDILTGYSIYGMDVWGQGTTVTVSS VL: EIVMTQSPATLSLSPGERATLSCRASQSVSSYLAWYQQKPGQAPRLLIYDASKRATGIPARFSGSGSGTDFTLTISSLEPEDFAVYYCQQRSNWPLTFGGGTKVEIK 645
